test: In-vivo radioactivity distribution experiment using normal mice (Example 2); details: normal mice, intravenous, 2 min; Example 2 numbering
Each item that follows carries a reported In-vivo radioactivity distribution: brain.
Reported metric: In-vivo radioactivity distribution: brain

INSERT INTO measurements (chemical_string, val) VALUES
  ('CN(C)c1ccc(C(=O)/C=C/c2ccc(I)cc2)cc1', '2.77 (0.37) percent of the dose/g'),
  ('CNc1ccc(C(=O)/C=C/c2ccc(I)cc2)cc1', '3.07 (0.57) percent of the dose/g'),
  ('CN(C)c1ccc(C=CC(=O)c2ccc(I)s2)cc1', '2.40 (0.30) percent of the dose/g'),
  ('CNc1ccc(C=CC(=O)c2ccc(I)s2)cc1', '2.56 (0.44) percent of the dose/g');

---

assay: In-vivo radioactivity distribution experiment using normal mice (Example 2); conditions: normal mice, intravenous, 2 min; Example 2 numbering
Reported metric: In-vivo radioactivity distribution: blood

INSERT INTO results (molecule, val) VALUES
  ('CNc1ccc(C=CC(=O)c2ccc(I)s2)cc1 [Compound 13 in Example 2]', '3.00 (0.83) percent of the dose/g'),
  ('CN(C)c1ccc(C(=O)/C=C/c2ccc(I)cc2)cc1 [Compound 10 in Example 2, 4-iodo-4′-dimethylaminochalcone]', '1.87 (0.23) percent of the dose/g'),
  ('CNc1ccc(C(=O)/C=C/c2ccc(I)cc2)cc1 [Compound 7 in Example 2, 4-iodo-4′-methylaminochalcone]', '1.76 (0.27) percent of the dose/g'),
  ('CN(C)c1ccc(C=CC(=O)c2ccc(I)s2)cc1 [Compound 14 in Example 2]', '4.91 (0.71) percent of the dose/g');

---

Each item that follows carries a reported In-vivo radioactivity distribution: blood.
assay: In-vivo radioactivity distribution experiment using normal mice (Example 2); conditions: normal mice, intravenous, 60 min; Example 2 numbering
Reported metric: In-vivo radioactivity distribution: blood

INSERT INTO assay_data (molecule, val) VALUES
  ('CN(C)c1ccc(C(=O)/C=C/c2ccc(I)cc2)cc1 [Compound 10 in Example 2, 4-iodo-4′-dimethylaminochalcone]', '1.38 (0.54) percent of the dose/g'),
  ('CNc1ccc(C(=O)/C=C/c2ccc(I)cc2)cc1 [Compound 7 in Example 2, 4-iodo-4′-methylaminochalcone]', '1.51 (0.26) percent of the dose/g'),
  ('CN(C)c1ccc(C=CC(=O)c2ccc(I)s2)cc1 [Compound 14 in Example 2]', '2.63 (0.45) percent of the dose/g'),
  ('CNc1ccc(C=CC(=O)c2ccc(I)s2)cc1 [Compound 13 in Example 2]', '2.89 (0.49) percent of the dose/g');

---

Test: In-vivo radioactivity distribution experiment using normal mice (Example 2)
Conditions: normal mice, intravenous, 2 min; Example 2 numbering
Procedure: Radioactive iodine labeling compounds were diluted with physiological saline containing 10% EtOH. To each of four or five 5-week-old male ddY mice (20 to 25 g) per group, […] of a labeled compound, [^125I]Compound 7, 10, 13, or 14 (0.2 to 0.4 mCi), was administered from the caudal vein. Animals were decapitated at 2, 10, 30, or 60 min, blood was collected, the major organs were isolated, and then weights and radioactivities thereof were measured.
Each item that follows carries a reported In-vivo radioactivity distribution: spleen.
Reported metric: In-vivo radioactivity distribution: spleen

INSERT INTO assay_data (chemical_string, val) VALUES
  ('CNc1ccc(C=CC(=O)c2ccc(I)s2)cc1', '2.06 (0.49) percent of the dose/g'),
  ('CN(C)c1ccc(C=CC(=O)c2ccc(I)s2)cc1', '4.05 (0.63) percent of the dose/g'),
  ('CN(C)c1ccc(C(=O)/C=C/c2ccc(I)cc2)cc1', '2.35 (0.35) percent of the dose/g'),
  ('CNc1ccc(C(=O)/C=C/c2ccc(I)cc2)cc1', '2.27 (0.48) percent of the dose/g');

Source of measurements: patent US20100278733A1
